Source listed as patent US20040110228A1.

System: Holliday junction (HJ) intermediate
assay overview: in vitro Holliday junction trapping assay (recombination of radiolabeled and unlabeled DNA substrates)
Format: biochemical
measurement setup: 0.01 mg/ml concentrations of peptides; FIG. 56
Procedure: The eight macrocyclic compounds shown in FIGS. 55 were tested for their ability to bind to the HJ in an in vitro assay. The assay employs a recombination reaction between one radiolabeled double-stranded DNA substrate and an unlabeled partner DNA substrate. Successful recombination gives recombination products and very small amounts of HJ intermediate. […]
Where a SMILES comes first, the peptide text is derived from it. [ ]: non-standard residue; d: D form. ξ: configuration not given here. ξW = NC(Cc1c[nH]c2ccccc12)C(=O)O; dTic = O=C(O)[C@H]1Cc2ccccc2CN1; Tic = O=C(O)[CH]1Cc2ccccc2CN1; ξF = NC(Cc1ccccc1)C(=O)O
quantity: accumulation of HJ intermediates / binding to the HJ

| compound | target under test | readout value |
| --- | --- | --- |
| O=C1NC(Cc2ccccc2)C(=O)N2Cc3ccccc3C[C@@H]2C(=O)NC(Cc2ccccc2)C(=O)NC(Cc2ccccc2)C(=O)N2Cc3ccccc3C[C@@H]2C(=O)NC1Cc1ccccc1 (stereo partly shown) [D] (cyclo([dTic][ξF][ξF][dTic][ξF][ξF])) | Holliday junction (HJ) intermediate | particularly active |
| O=C1NC(Cc2ccccc2)C(=O)N2Cc3ccccc3CC2C(=O)NC(Cc2ccccc2)C(=O)NC(Cc2ccccc2)C(=O)N2Cc3ccccc3CC2C(=O)NC1Cc1ccccc1 (stereo not shown) [A] (cyclo(FF[Tic]FF[Tic]); configuration not given here) | Holliday junction (HJ) intermediate | particularly active |
| O=C1NC(Cc2c[nH]c3ccccc23)C(=O)N2Cc3ccccc3CC2C(=O)NC(Cc2ccccc2)C(=O)NC(Cc2c[nH]c3ccccc23)C(=O)N2Cc3ccccc3CC2C(=O)NC1Cc1ccccc1 (stereo not shown) [B] (cyclo(FW[Tic]FW[Tic]); configuration not given here) | Holliday junction (HJ) intermediate | particularly active |
| O=C1NC(Cc2c[nH]c3ccccc23)C(=O)N2Cc3ccccc3C[C@@H]2C(=O)NC(Cc2ccccc2)C(=O)NC(Cc2c[nH]c3ccccc23)C(=O)N2Cc3ccccc3C[C@@H]2C(=O)NC1Cc1ccccc1 (stereo partly shown) [E] (cyclo([dTic][ξF][ξW][dTic][ξF][ξW])) | Holliday junction (HJ) intermediate | particularly active |
